# TEST_METHOD_NOTES: Solubility of salt forms
# Format: physicochemical
Exercise: for every item that follows, state its recorded Solubility.

# example entries with known answers
C=CC(=O)Nc1cc(Nc2nccc(-c3cn(C)c4ccccc34)n2)c(OC)cc1OCCN(C)C [Compound 6] :: 6.9 mg/mL
C=CC(=O)Nc1cc(Nc2nccc(-c3cn(C)c4ccccc34)n2)c(OC)cc1OCCN(C)C [Compound 2] :: >53 mg/mL
C=CC(=O)Nc1cc(Nc2nccc(-c3cn(C)c4ccccc34)n2)c(OC)cc1OCCN(C)C [Compound 4] :: >79 mg/mL

Okay, now this compound:
Lab book: Solubility of C=CC(=O)Nc1cc(Nc2nccc(-c3cn(C)c4ccccc34)n2)c(OC)cc1OCCN(C)C [Compound 1] noted as 0.05 mg/mL

Recorded values, source patent US10844045B2.
